Property: pEC50; scope: individual compounds
target.system: Mu-type opioid receptor (Homo sapiens, UniProt P35372)
Sequence (P35372 whole entry): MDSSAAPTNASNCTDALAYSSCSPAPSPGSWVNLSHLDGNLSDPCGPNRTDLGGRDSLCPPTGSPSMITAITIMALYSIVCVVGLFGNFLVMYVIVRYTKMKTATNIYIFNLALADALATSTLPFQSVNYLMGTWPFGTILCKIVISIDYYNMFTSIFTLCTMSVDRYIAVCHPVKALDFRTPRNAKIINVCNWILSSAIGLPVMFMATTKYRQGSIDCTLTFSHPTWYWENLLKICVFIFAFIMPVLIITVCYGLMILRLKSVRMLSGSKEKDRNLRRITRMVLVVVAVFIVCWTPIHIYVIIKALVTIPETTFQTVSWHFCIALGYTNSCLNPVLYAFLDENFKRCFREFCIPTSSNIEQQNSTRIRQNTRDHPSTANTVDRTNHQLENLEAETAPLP
assay.details: FLIPR Calcium Assay
pEC50: −log10 of the molar value.
readout.label: pEC50

INSERT INTO results (compound, target_system, data_value) VALUES
  ('COc1cc(N2C(=O)CSC2c2ccc(F)cc2)cc(OC)c1OC (centres undefined) [US10544113, No. 16]', 'Mu-type opioid receptor (Homo sapiens, UniProt P35372)', 5.08),
  ('Cc1cc(C(=O)NCCc2ccccc2Cl)ccc1N1C(=O)CSC1c1ccc(F)cc1 (centres undefined) [US10544113, No. 384]', 'Mu-type opioid receptor (Homo sapiens, UniProt P35372)', 5.18),
  ('COCCCNC(=O)c1ccc(N2C(=O)CSC2c2ccc(F)cc2)c(C)c1 (centres undefined) [US10544113, No. 343]', 'Mu-type opioid receptor (Homo sapiens, UniProt P35372)', 5.43),
  ('COc1ccccc1N1C(=O)CSC1c1cccc(F)c1 (centres undefined) [US10544113, No. 1]', 'Mu-type opioid receptor (Homo sapiens, UniProt P35372)', 4.91);
